B1: Pistol ribozyme (parent)
chain: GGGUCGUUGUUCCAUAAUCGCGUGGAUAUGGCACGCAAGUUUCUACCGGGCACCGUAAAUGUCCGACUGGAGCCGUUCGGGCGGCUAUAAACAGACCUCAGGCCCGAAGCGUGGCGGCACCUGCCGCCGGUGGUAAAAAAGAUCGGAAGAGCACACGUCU

- Variants of: B1
- assayProcedure: aptazyme ON/OFF ratio, guanine; higher = stronger switching; co-transcriptional cleavage with and without guanine
readoutType: aptazyme ON/OFF ratio
In your answer, state the number alone without any accompanying words.

# annotated cases, reported aptazyme ON/OFF ratio shown
>  <variantIdentifier>
U7G G9U U10C U11G C12G

>  <aptazyme ON/OFF ratio>
1.25

$$$$
>  <variantIdentifier>
G9U U10A U11G C12U C13A

>  <aptazyme ON/OFF ratio>
1.21

$$$$
>  <variantIdentifier>
G9C U11C C12U C13U

>  <aptazyme ON/OFF ratio>
1.14

$$$$

Task: Identify measured aptazyme ON/OFF ratio corresponding to U7C G9U U10A U11C C12G C13U
Output: 1.15

Task: Identify measured aptazyme ON/OFF ratio corresponding to U7C U8G U10G U11A C12U C13G
Output: 1.11

Task: Identify measured aptazyme ON/OFF ratio corresponding to U7G U8A U11G C12A C13U
Output: 1.34

Task: Identify measured aptazyme ON/OFF ratio corresponding to U7C U8A G9U U10C C12A C13A
Output: 1.13

Task: Identify measured aptazyme ON/OFF ratio corresponding to U8C G9A U10C C12U C13G
Output: 1.26

Task: Identify measured aptazyme ON/OFF ratio corresponding to U7C G9U U10A U11A C12G C13A
Output: 1.17

Task: Identify measured aptazyme ON/OFF ratio corresponding to U7G G9A C12U C13A
Output: 1.14

Task: Identify measured aptazyme ON/OFF ratio corresponding to U7A U8C G9A U10C U11G C12A C13G
Output: 1.33
